Target: Prostaglandin E synthase (Homo sapiens) (UniProt O14684)
Sequence (O14684 whole entry): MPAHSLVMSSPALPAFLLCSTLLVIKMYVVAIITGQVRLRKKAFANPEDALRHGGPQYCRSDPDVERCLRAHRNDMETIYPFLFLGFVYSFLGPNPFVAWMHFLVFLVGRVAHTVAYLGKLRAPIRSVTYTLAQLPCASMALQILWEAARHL
Assay: Inhibition of microsomal PGES1 at 25 uM
inhibition by entry:

INSERT INTO assay_data (molecule, reported_endpoint, data_value) VALUES
  ('CN1C(=O)C(N)NC(=O)c2ccccc21 (racemic)', 'inhibition', '> 80%');

Request: Report inhibition under test system Prostaglandin E synthase (Homo sapiens) (UniProt O14684) for CNC(=O)/C(=N\OC)c1ccccc1O .
Result: > 80%

Request: Report inhibition under test system Prostaglandin E synthase (Homo sapiens) (UniProt O14684) for O=C1Sc2ccccc2C1=O .
Result: > 80%

Request: Report inhibition under test system Prostaglandin E synthase (Homo sapiens) (UniProt O14684) for COc1ccc(OC(=O)Nc2ccccc2)cc1 .
Result: > 80%
